Provenance of the data: ChEMBL document CHEMBL1137452

System: Candida albicans
Experiment: Antifungal activity against Candida albicans ATCC 60193 after 48 hrs by broth micro dilution technique
Type: functional, organism-based
Conditions: ATCC 60193, 48 h
MIC values by entry
PROPERTY NAME: MIC

molecule="CN1CCN(CC(CSC(=O)N2CCCCC2)SSC(CSC(=O)N2CCCCC2)CN2CCN(C)CC2)CC1 (racemic)" property_name=MIC result="> 50 µg/mL"
molecule="O=C(SCC(CN1C=CC=CC=C1)SSC(CSC(=O)N1CCOCC1)CN1C=CC=CC=C1)N1CCOCC1 (racemic)" property_name=MIC result="50 µg/mL"
molecule="O=C(SCC(CN1CCCC1)SSC(CSC(=O)N1CCCCC1)CN1CCCC1)N1CCCCC1 (racemic)" property_name=MIC result="> 50 µg/mL"
molecule="O=C(SCC(CN1CCCCC1)SSC(CSC(=O)N1CCCCC1)CN1CCCCC1)N1CCCCC1 (racemic)" property_name=MIC result="> 50 µg/mL"
molecule=CCCCCCCCCc1ccc(OCCOCCOCCOCCOCCOCCOCCOCCOCCO)cc1 property_name=MIC result="> 50 µg/mL"
molecule="O=C(SCC(CN1CCCC1)SSC(CSC(=O)N1CCCC1)CN1CCCC1)N1CCCC1 (racemic)" property_name=MIC result="> 50 µg/mL"
molecule="O=C(SCC(CN1CCCCC1)SSC(CSC(=O)N1CCCC1)CN1CCCCC1)N1CCCC1 (racemic)" property_name=MIC result="> 50 µg/mL"
molecule=OC(Cn1cncn1)(Cn1cncn1)c1ccc(F)cc1F property_name=MIC result="0.25 µg/mL"
molecule="O=C(SCC(CN1C=CC=CC=C1)SSC(CSC(=O)N1CCCC1)CN1C=CC=CC=C1)N1CCCC1 (racemic)" property_name=MIC result="50 µg/mL"

---

Recorded measurements of MEC, one per entry
Species on record: Homo sapiens
Experiment: Spermicidal activity against human spermatozoa
Type: functional
PROPERTY NAME: MEC (%w/v)

compound="O=C(SCC(CN1CCCCC1)SSC(CSC(=O)N1CCOCC1)CN1CCCCC1)N1CCOCC1 (racemic)" property_name=MEC quantitative_readout=0.5
compound="O=C(SCC(CN1CCCC1)SSC(CSC(=O)N1CCCC1)CN1CCCC1)N1CCCC1 (racemic)" property_name=MEC quantitative_readout=0.002
compound="O=C(SCC(CN1CCCC1)SSC(CSC(=O)N1CCOCC1)CN1CCCC1)N1CCOCC1 (racemic)" property_name=MEC quantitative_readout=0.1
compound="O=C(SCC(CN1CCCCC1)SSC(CSC(=O)N1CCCC1)CN1CCCCC1)N1CCCC1 (racemic)" property_name=MEC quantitative_readout=0.05
compound="O=C(SCC(CN1CCOCC1)SSC(CSC(=O)N1CCCCC1)CN1CCOCC1)N1CCCCC1 (racemic)" property_name=MEC quantitative_readout=0.1
compound="O=C(SCC(CN1C=CC=CC=C1)SSC(CSC(=O)N1CCCC1)CN1C=CC=CC=C1)N1CCCC1 (racemic)" property_name=MEC quantitative_readout=0.05
compound="O=C(SCC(CN1C=CC=CC=C1)SSC(CSC(=O)N1CCOCC1)CN1C=CC=CC=C1)N1CCOCC1 (racemic)" property_name=MEC quantitative_readout=0.05
compound="CN1CCN(CC(CSC(=O)N2CCCCC2)SSC(CSC(=O)N2CCCCC2)CN2CCN(C)CC2)CC1 (racemic)" property_name=MEC quantitative_readout=0.05
